Data provenance: ChEMBL document CHEMBL1201862

- Test system: NCI-H522
- Assay Text: NCI tumour cell line growth inhibition, 48 h
The source made the active and inactive calls. No stated cut-off is given here; in the data, active = GI50 up to about 1.1 µM and inactive = higher.
Would you mind telling me the reported GI50 of each entry?

# example entries with known answers
- Compound: "O=C(O)CSc1ncccc1[N+](=O)[O-]"
  Test Target: "NCI-H522"
  GI50: "> 100 µM (inactive)"
- Compound: "COc1ccc2c3c1C(=O)CCC3CO2 (centres undefined)"
  Test Target: "NCI-H522"
  GI50: "> 100 µM (inactive)"
- Compound: "O=C1Oc2ccc([N+](=O)[O-])cc2N/C1=C\\C(=O)c1ccccc1"
  Test Target: "NCI-H522"
  GI50: "76.2 µM (inactive)"

Now take the following compound into account.
The reported NCI-H522 GI50 of O=C(/C=C/c1ccc(O)cc1)c1cc(O)cc(O)c1 is 3.95 µM (inactive)

* * *

- System: SNB-75
- Assay Text: NCI tumour cell line growth inhibition, 48 h
Activity calls are given as the source filed them. Rule as the data show it: active = GI50 up to about 1.1 µM and inactive = higher.
Your reply should match one of these outcome classes. True for active, False for inactive

- Molecule: "N#Cc1c2c(c(Nc3cccc(C(F)(F)F)c3)n3c1nc1ccccc13)CCC2"
  Category: "False"
- Molecule: "COc1ccc(C2CCc3nc4nc(N)nc(N)c4cc3C2)cc1 (stereo not given)"
  Category: "False"
- Molecule: "COC(=O)N1[C@H]2Cc3c(OC)c(C)c(OC)c(OC)c3[C@@H]1/C(=C\\c1cc(OC)c(OC)c(C)c1OC)N(Cc1ccccc1)C2=O"
  Category: "False"
- Molecule: "CC(C)(C)[Si](C)(C)OCC#C[C@@]1(O)CCCCC1CC(Sc1ccccc1)Sc1ccccc1 (stereo not given in full)"
  Category: "False"

Returns: the outcome recorded for CC1SCCc2nc3ccccc3n21 (stereo not given) in this assay.
False

Returns: the outcome recorded for CC[C@@]1(O)C(=O)OCc2c1cc1n(c2=O)Cc2c-1nc1ccccc1c2/C=N\NC(=O)C[n+]1ccccc1 in this assay.
True

Returns: the outcome recorded for C=C1CC(Cn2ccc(=O)[nH]c2=O)(c2ccc(Cl)cc2)OC1=O (stereo not given) in this assay.
False

Returns: the outcome recorded for CC(C)OC(=O)c1ccc(NCc2cc(O)ccc2O)cc1Cl in this assay.
False

Returns: the outcome recorded for CCn1ncc2c1nc(-c1ccccc1)c[n+]2[O-] in this assay.
False

Returns: the outcome recorded for C=C[C@@]1(C)CC[C@@H]2[C@@]3(C1)O[C@H]3CC1[C@](C)(C(=O)OC)CCC[C@@]12C (stereo not given in full) in this assay.
False

Returns: the outcome recorded for COc1ccc([C@H]2CC(=O)N3CCCC3N2)cc1 (stereo not given in full) in this assay.
False

Returns: the outcome recorded for Nc1c(S(=O)(=O)O)cc(Nc2cccc(S(N)(=O)=O)c2)c2c1C(=O)c1ccccc1C2=O in this assay.
False

* * *

- System: RPMI-8226
- Assay Text: NCI tumour cell line growth inhibition, 48 h
Active and inactive are the calls of the source. Rule as the data show it: active = GI50 up to about 1.1 µM and inactive = higher.
Readout Kind: GI50

# example entries with known answers
- Compound: "NNC(=O)/C(=C/c1ccc(Cl)c(Cl)c1)NC(=O)c1ccccc1"
  GI50: "38.5 µM (inactive)"
- Compound: "CC1=C(C(=O)OC(C)C)C(c2ccccc2C(F)(F)F)C(C(=O)OC(CO[N+](=O)[O-])CO[N+](=O)[O-])=C(C)N1 (centres undefined)"
  GI50: "3.94 µM (inactive)"
- Compound: "O=c1[nH]c2nc3ccccc3c(=O)n2/c1=C/c1cccs1"
  GI50: "> 100 µM (inactive)"

Now take the following compound into account.
The reported RPMI-8226 GI50 of CN(C(=O)c1ccc(OCCCC(=O)O)c(Cl)c1Cl)C1CCCC1 is 98.6 µM (inactive)

* * *

- System: SK-MEL-5
- Assay Text: NCI tumour cell line growth inhibition, 48 h
The source made the active and inactive calls. Cut-off read from the data, not from the text of the source: active = GI50 up to about 1.1 µM and inactive = higher.
Readout Kind: GI50

# example entries with known answers
- Compound: "CCN(CC)Cc1nc(C2CCC([N+](=O)[O-])O2)no1 (centres undefined)"
  Test Target: "SK-MEL-5"
  Readout Kind: "GI50"
  Observed Value: "16.4 µM (inactive)"
- Compound: "N=C(N)C1CN(CCc2c[nH]cn2)C(=O)NC1=O (centres undefined)"
  Test Target: "SK-MEL-5"
  Readout Kind: "GI50"
  Observed Value: "> 100 µM (inactive)"
- Compound: "O=C1C(N2CCCC2)=CC(=O)c2c(O)c(N3CCCC3)c(Cl)c(O)c21"
  Test Target: "SK-MEL-5"
  Readout Kind: "GI50"
  Observed Value: "> 10 µM (inactive)"
- Compound: "Cc1c(Cc2ccccc2)n(C(C)OCCN(OC(=O)Oc2ccccc2)C(=O)Oc2ccccc2)c(=O)[nH]c1=O (centres undefined)"
  Test Target: "SK-MEL-5"
  Readout Kind: "GI50"
  Observed Value: "14.3 µM (inactive)"

Consider the following items and state reported GI50 for each.
1. CC1=NC(=Cc2cc(Br)cc(Br)c2)C(=O)N1n1c(-c2ccccc2)nc2ccccc2c1=O
2. COc1ccc(OC)c(NC(=O)C(=O)Nn2c(S)nc3ccccc3c2=O)c1
3. C=CCCCCOC1C=CC(OC(C)=O)C(COC(C)=O)O1 (centres undefined)
4. Cn1c(SCc2ccc([N+](=O)[O-])cc2)nnc1C12CC3CC(CC(C3)C1)C2

1: > 100 µM (inactive); 2: > 100 µM (inactive); 3: > 100 µM (inactive); 4: > 10 µM (inactive)

Just so you know, measured GI50 for O=c1[nH]c(=O)n([C@H]2C[C@H](O)[C@@H](CO)O2)cc1Br came out at > 100 µM (inactive)

* * *

- Test system: SK-MEL-28
- Assay Text: NCI tumour cell line growth inhibition, 48 h
Active and inactive are the calls of the source. Cut-off read from the data, not from the text of the source: active = GI50 up to about 1.1 µM and inactive = higher.
Readout Kind: GI50

# example entries with known answers
- Compound: "Cc1ccccc1NC(=O)O/N=C(\\Cl)C(C)C"
  GI50: "2.4 µM (inactive)"
- Compound: "CCSC1(SCC)CCN(/C=N/C(C)(C)C)C1"
  GI50: "> 100 µM (inactive)"
- Compound: "Cc1ccc(S(=O)(=O)c2c3nc4ccccc4nc3n3c2[nH]c2ccccc23)cc1"
  GI50: "> 100 µM (inactive)"
- Compound: "CN1CC=C(c2cccn2C)CC1"
  GI50: "> 100 µM (inactive)"
- Compound: "Clc1ccc(OCc2nnc(CCCCCCCCc3nnc(COc4ccc(Cl)cc4Cl)n3Nc3ccccc3)n2Nc2ccccc2)c(Cl)c1"
  GI50: "5.46 µM (inactive)"
- Compound: "CN1CCN(c2ccc3nc(-c4cc(O)c5c(nc(CO)n5C)c4O)[nH]c3n2)CC1"
  GI50: "> 100 µM (inactive)"
- Compound: "NC(=O)C1(c2ccccc2)Nc2ccccc2S1 (configuration not stated)"
  GI50: "> 100 µM (inactive)"
- Compound: "O=c1[nH]c(=O)n([C@H]2C[C@H](O)[C@@H](CO)O2)cc1Br"
  GI50: "> 86.5 µM (inactive)"
- Compound: "CC1CCC(O)C(C(O)CC2CC(=O)N(C)C(=O)C2)C1 (configuration not stated)"
  GI50: "> 100 µM (inactive)"
- Compound: "C1CSCCSS[C@@H]2CCCCC2SC1 (some centres not stated)"
  GI50: "> 100 µM (inactive)"

Consider the following items and state reported GI50 for each.
1. COc1ccccc1Nc1nc(N)nc(N)c1N=O
2. O=S(=O)(O)c1ccc(-c2nnc(-c3ccccn3)nc2-c2ccc(S(=O)(=O)O)o2)o1

> 100 µM (inactive)
> 100 µM (inactive)

* * *

- System: OVCAR-3
- Assay Text: NCI tumour cell line growth inhibition, 48 h
The source made the active and inactive calls. Cut-off read from the data, not from the text of the source: active = GI50 up to about 1.1 µM and inactive = higher.
Readout Kind: GI50

# example entries with known answers
- Compound: "Nc1[nH]c(=S)[nH]c(=O)c1/N=N/c1c(Br)cc(S(N)(=O)=O)cc1Br"
  GI50: "> 100 µM (inactive)"
- Compound: "CC12OOC(c3ccccc31)c1c2ccc2ccccc12 (stereo not given)"
  GI50: "2.26 µM (inactive)"
- Compound: "Cc1ccc2c(c1)-c1c(C#N)c(N)nc(-c3ccc(Cl)cc3)c1CCS2(=O)=O"
  GI50: "3.94 µM (inactive)"
- Compound: "CCCc1cn2c(/C=N/NC(=N)N)c(-c3cc([N+](=O)[O-])c(Cl)cc3Cl)nc2s1"
  GI50: "1.5 µM (inactive)"

The reported OVCAR-3 GI50 of CCOC(=O)C1S/C(=N\c2ccc(Cl)c(Cl)c2)N=C1C (stereo not given) is 17.9 µM (inactive)

* * *

Would you mind telling me the reported GI50 of each entry?
- System: EKVX
- Assay Text: NCI tumour cell line growth inhibition, 48 h
Activity calls are given as the source filed them. Rule as the data show it: active = GI50 up to about 1.1 µM and inactive = higher.

# example entries with known answers
- Compound: "COc1ccc(-c2c(N)n(-c3cc(OC)cc(OC)c3)c(=O)c3cc([N+](=O)[O-])ccc23)cc1"
  Test Target: "EKVX"
  GI50: "38.3 µM (inactive)"
- Compound: "CCCCCC(CO)C(O)(C(F)(F)F)C(F)(F)F (stereo not given)"
  Test Target: "EKVX"
  GI50: "> 10 µM (inactive)"
- Compound: "C=C/C(C)=C/[C@H](C)C(=O)C[C@H](O)CC1CC(=O)NC(=O)C1"
  Test Target: "EKVX"
  GI50: "24.1 µM (inactive)"
- Compound: "COC(=O)c1ccc(NC(=O)O/N=C(\\Cl)C(C)C)cc1"
  Test Target: "EKVX"
  GI50: "3.22 µM (inactive)"

Now take the following compound into account.
The reported EKVX GI50 of N=C(N)NCCCC(Nc1c2ccccc2nc2ccccc12)C(=O)O (stereo not given) is > 100 µM (inactive)
